Collected pIC50 values appear next to each entry.
- TESTED ON: CHK1 (Homo sapiens (Human), UniProt O14757)
- Sequence (O14757 whole entry): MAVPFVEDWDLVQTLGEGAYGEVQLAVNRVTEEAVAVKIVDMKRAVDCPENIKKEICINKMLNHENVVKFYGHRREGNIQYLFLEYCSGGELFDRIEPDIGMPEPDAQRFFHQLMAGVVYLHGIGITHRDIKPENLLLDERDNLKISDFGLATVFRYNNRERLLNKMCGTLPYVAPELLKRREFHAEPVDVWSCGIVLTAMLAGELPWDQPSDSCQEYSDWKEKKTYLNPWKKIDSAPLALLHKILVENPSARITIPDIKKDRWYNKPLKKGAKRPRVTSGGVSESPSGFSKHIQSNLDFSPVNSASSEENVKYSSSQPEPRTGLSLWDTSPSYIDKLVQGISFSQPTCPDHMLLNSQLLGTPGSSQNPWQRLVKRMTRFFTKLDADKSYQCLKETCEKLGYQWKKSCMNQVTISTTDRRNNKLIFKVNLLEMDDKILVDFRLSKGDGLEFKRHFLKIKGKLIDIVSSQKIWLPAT
Just so you know, pIC50 here is -log10 of the concentration in molar units; reply with that number alone.

For the molecule COc1cc(Cl)nc(OCCCN)c1-c1cc(Nc2cnc(C#N)cn2)n[nH]1 , the measured pIC50 on CHK1 (Homo sapiens (Human), UniProt O14757) was 9.66

// pIC50 (CHK1 (Homo sapiens (Human), UniProt O14757)) for COc1cncc(O[C@H]2C[C@H](N)[C@H]3C[C@H]32)c1-c1cc(Nc2cnc(C#N)cn2)n[nH]1 = 9.14

Query COc1cncc(OCC2(C)CNC2)c1-c1cc(Nc2cnc(C#N)cn2)n[nH]1 on CHK1 (Homo sapiens (Human), UniProt O14757); pIC50 returned: 9.13

The molecule COc1cncc(OC[C@H]2CNCCO2)c1-c1cc(Nc2cnc(C#N)cn2)n[nH]1 (stereo in doubt) on CHK1 (Homo sapiens (Human), UniProt O14757): pIC50 was 9.13

Form: item COc1cncc(OC[C@@H]2CNCCO2)c1-c1cc(Nc2cnc(C#N)cn2)n[nH]1 (stereo in doubt) ; test system CHK1 (Homo sapiens (Human), UniProt O14757); pIC50: 9.47

Considering COc1cncc(OCC2CNC2)c1-c1cc(Nc2cnc(C#N)cn2)n[nH]1 , its pIC50 with CHK1 (Homo sapiens (Human), UniProt O14757) was recorded as 9.29

Note to self: pIC50 of CN[C@@H]1CC[C@@H](Oc2cncc(OC)c2-c2cc(Nc3cnc(C#N)cn3)n[nH]2)C1 with CHK1 (Homo sapiens (Human), UniProt O14757) was 9.21
